- study_system: T1, TOP3β (DNA topoisomerase IIIβ) (Giardia lamblia WB, UniProt A8B577 1-973)
- T1 sequence: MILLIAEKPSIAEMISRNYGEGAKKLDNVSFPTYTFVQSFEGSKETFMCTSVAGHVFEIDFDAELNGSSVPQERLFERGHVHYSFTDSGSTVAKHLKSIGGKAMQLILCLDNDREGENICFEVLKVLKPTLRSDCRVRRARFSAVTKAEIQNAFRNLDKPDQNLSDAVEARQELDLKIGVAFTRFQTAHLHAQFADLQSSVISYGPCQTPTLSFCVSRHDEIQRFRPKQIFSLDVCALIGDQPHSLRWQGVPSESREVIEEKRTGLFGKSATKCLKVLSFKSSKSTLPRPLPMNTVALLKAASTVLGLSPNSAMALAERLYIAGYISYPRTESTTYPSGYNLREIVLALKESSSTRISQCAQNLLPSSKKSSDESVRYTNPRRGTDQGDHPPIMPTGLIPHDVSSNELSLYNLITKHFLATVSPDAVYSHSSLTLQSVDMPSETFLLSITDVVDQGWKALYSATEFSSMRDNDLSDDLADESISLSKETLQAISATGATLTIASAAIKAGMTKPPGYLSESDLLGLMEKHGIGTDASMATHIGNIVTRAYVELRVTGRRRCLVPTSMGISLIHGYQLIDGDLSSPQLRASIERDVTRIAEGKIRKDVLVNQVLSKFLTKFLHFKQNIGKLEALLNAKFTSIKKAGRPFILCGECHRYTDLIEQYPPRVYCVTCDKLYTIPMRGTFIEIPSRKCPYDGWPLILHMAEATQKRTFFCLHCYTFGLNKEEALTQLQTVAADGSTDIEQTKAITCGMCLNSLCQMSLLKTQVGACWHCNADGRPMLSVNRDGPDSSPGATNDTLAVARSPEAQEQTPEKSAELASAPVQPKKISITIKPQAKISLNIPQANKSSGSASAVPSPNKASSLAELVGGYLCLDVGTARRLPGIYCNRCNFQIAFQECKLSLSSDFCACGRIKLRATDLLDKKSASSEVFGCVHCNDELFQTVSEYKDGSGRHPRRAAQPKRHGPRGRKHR
- experiment: EMSA; EMSA: 0.02 pmol 32P probe, 5 ng protein, 20 µl, 0.5 µg poly(dI-dC), 15 min at room temperature, 6% acrylamide gel; buffer, salt and pH not given (cited reference)
- details: protein: recombinant; tags: C-terminal V5 and His; label: 32P
quantity: binding result

Quick note, binding result for GTTTACAACTCTCAGATCAAGAAACACAGAAATAAAATATCAGGG (ssDNA) [cwp1-45/-1F] landed at binds

The reported binding result of the binder TAGACTGATGCTGTAGAGGTCAACAGATAA (ssDNA) [cwp2-60/-31F] was binds

Entry CTGGCTAACAGTCTACAGTCTACAATTTACAGTATACAATCTACA (ssDNA) [cwp1-90/-46F] , binding result reported as binds

Data credit: paper PMC7058931
